# test system: T1, hIL-4Rα on cells (human, UniProt P24394 26-825)
# T1 sequence: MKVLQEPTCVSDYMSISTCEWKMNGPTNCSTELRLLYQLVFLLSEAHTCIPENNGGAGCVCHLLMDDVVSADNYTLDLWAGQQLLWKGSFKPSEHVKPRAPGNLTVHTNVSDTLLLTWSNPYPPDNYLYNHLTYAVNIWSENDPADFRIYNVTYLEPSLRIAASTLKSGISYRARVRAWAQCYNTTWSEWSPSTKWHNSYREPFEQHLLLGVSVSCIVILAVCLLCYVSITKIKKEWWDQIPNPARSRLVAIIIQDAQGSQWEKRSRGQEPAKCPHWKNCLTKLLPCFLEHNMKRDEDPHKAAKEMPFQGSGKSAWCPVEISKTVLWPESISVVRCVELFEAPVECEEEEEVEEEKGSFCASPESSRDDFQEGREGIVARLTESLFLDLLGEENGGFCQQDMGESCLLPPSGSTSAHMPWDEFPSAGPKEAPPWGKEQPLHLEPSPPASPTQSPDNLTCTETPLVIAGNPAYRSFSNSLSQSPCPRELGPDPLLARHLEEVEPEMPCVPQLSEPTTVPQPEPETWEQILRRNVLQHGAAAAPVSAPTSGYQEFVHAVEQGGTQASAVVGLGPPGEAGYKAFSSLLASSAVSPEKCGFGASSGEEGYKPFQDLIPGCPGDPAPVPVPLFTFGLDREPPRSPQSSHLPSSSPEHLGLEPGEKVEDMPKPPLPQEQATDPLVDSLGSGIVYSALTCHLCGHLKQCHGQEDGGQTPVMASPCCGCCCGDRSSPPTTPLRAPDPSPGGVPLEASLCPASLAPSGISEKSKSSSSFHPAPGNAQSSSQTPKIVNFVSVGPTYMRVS
# run description: cell-based or functional assay
Listing: Relative Inhibition of IL-13 induced TF-1 Proliferation IC50 of selected binders
measured quantity: Relative Inhibition of IL-13 induced TF-1 Proliferation IC50

>>> value_reported("Construct 12 (mAb421) (antibody, IgG4, V domains shown, VH/VL only) VH: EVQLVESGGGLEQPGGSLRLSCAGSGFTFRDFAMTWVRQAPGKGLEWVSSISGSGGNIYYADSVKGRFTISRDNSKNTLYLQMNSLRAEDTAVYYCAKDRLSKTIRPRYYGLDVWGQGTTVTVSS VL: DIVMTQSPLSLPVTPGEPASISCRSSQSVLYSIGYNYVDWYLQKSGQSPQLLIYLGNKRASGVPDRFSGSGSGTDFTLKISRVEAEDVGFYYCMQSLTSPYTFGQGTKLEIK")
"0.87 relative to dupilumab"
>>> value_reported("Construct 25 (mAb433) (antibody, IgG4, V domains shown, VH/VL only) VH: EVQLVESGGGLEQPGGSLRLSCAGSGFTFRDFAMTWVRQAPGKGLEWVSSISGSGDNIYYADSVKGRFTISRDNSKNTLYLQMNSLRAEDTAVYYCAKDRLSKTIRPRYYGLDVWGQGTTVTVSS VL: DIVMTQSPLSLPVTPGEPASISCTASQSLLYSIGYNYLDWYLQKSGQSPQLLIYEGNKRASGVPDRFSGSGSGTDFTLKISRVEAEDVGFYYCMQSLTSPYTFGQGTKLEIK")
"1.31 relative to dupilumab"
>>> value_reported("Construct 34 (mAb459) (antibody, IgG4, V domains shown, VH/VL only) VH: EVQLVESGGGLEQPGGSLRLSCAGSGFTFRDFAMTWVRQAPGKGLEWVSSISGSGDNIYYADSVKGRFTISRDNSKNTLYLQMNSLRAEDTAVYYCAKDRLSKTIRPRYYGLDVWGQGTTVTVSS VL: DIVMTQSPLSLPVTPGEPASISCRSSQGLLYSIGYNYVDWYLQKSGQSPQLLIYLGNKRASGVPDRFSGSGSGTDFTLKISRVEAEDVGFYYCMQALDTPYTFGQGTKLEIK")
"1.55 relative to dupilumab"
>>> value_reported("Construct 19 (mAb427) (antibody, IgG4, V domains shown, VH/VL only) VH: EVQLVESGGGLEQPGGSLRLSCAGSGFTFRTYAMTWVRQAPGKGLEWVSSISGSGDNTYYADSVKGRFTISRDNSKNTLYLQMNSLRAEDTAVYYCAKDRVSITIRPRYYGLDVWGQGTTVTVSS VL: DIVMTQSPLSLPVTPGEPASISCTSSQSLLYSIGYNYVDWYLQKSGQSPQLLIYLGNKRASGVPDRFSGSGSGTDFTLKISRVEAEDVGFYYCMQALGSPYTFGQGTKLEIK")
"0.55 relative to dupilumab"
>>> value_reported("Construct 44 (mAb485) (antibody, IgG4, V domains shown, VH/VL only) VH: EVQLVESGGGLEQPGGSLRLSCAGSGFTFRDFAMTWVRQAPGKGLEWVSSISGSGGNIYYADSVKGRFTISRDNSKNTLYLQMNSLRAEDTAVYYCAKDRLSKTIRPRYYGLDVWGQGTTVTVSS VL: DIVMTQSPLSLPVTPGEPASISCRSTQSLLYSIGKNYVDWYLQKSGQSPQLLIYEGNNRASGVPDRFSGSGSGTDFTLKISRVEAEDVGFYYCMQSLTSPYTFGQGTKLEIK")
"1.29 relative to dupilumab"
>>> value_reported("Construct 8 (mAb417) (antibody, IgG4, V domains shown, VH/VL only) VH: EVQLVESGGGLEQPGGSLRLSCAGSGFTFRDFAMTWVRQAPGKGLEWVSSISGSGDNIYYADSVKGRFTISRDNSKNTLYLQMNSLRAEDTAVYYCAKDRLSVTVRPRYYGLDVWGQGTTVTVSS VL: DIVMTQSPLSLPVTPGEPASISCRSTQSLLYSIGKNYVDWYLQKSGQSPQLLIYLGNNRATGVPDRFSGSGSGTDFTLKISRVEAEDVGFYYCMQALTTPYAFGQGTKLEIK")
"1.47 relative to dupilumab"
>>> value_reported("Construct 40 (mAb476) (antibody, IgG4, V domains shown, VH/VL only) VH: EVQLVESGGGLEQPGGSLRLSCAGSGFTFRDFAMTWVRQAPGKGLEWVSSVSGDGGNTYYADSVKGRFTISRDNSKNTLYLQMNSLRAEDTAVYYCAKDRLSKTIRPRYYGLDVWGQGTTVTVSS VL: DIVMTQSPLSLPVTPGEPASISCRSSQSVLYSIGYNYVDWYLQKSGQSPQLLIYLGNKRASGVPDRFSGSGSGTDFTLKISRVEAEDVGFYYCMQAYQSPYVFGQGTKLEIK")
"1.01 relative to dupilumab"
>>> value_reported("Construct 20 (mAb428) (antibody, IgG4, V domains shown, VH/VL only) VH: EVQLVESGGGLEQPGGSLRLSCAGSGFTFRDFAMTWVRQAPGKGLEWVSSISGSGDNTYYADSVKGRFTISRDNSKNTLYLQMNSLRAEDTAVYYCAKDRLSITVRPRYYGLDVWGQGTTVTVSS VL: DIVMTQSPLSLPVTPGEPASISCTSSQSLLYSIGYNYVDWYLQKSGQSPQLLIYLGNKRASGVPDRFSGSGSGTDFTLKISRVEAEDVGFYYCMQSLQTPYVFGQGTKLEIK")
"1.38 relative to dupilumab"
>>> value_reported("Construct 9 (mAb418) (antibody, IgG4, V domains shown, VH/VL only) VH: EVQLVESGGGLEQPGGSLRLSCAGSGFTFTDFAMTWVRQAPGKGLEWVSSISGSGGNIYYADSVKGRFTISRDNSKNTLYLQMNSLRAEDTAVYYCAKDRLSVTVRPRYYGLDVWGQGTTVTVSS VL: DIVMTQSPLSLPVTPGEPASISCRSSQSLLYSIGKNYVDWYLQKSGQSPQLLIYLGNNRATGVPDRFSGSGSGTDFTLKISRVEAEDVGFYYCMQALGSPYTFGQGTKLEIK")
"1.34 relative to dupilumab"
>>> value_reported("Construct 17 (mAb425) (antibody, IgG4, V domains shown, VH/VL only) VH: EVQLVESGGGLEQPGGSLRLSCAGSGFTFRDFAMTWVRQAPGKGLEWVSSISGSGSSTYYADSVKGRFTISRDNSKNTLYLQMNSLRAEDTAVYYCAKDRLSVTVRPRYYGLDVWGQGTTVTVSS VL: DIVMTQSPLSLPVTPGEPASISCTASQSLLYSIGYNYVDWYLQKSGQSPQLLIYLGSKRASGVPDRFSGSGSGTDFTLKISRVEAEDVGFYYCMQAYNSPYTFGQGTKLEIK")
"0.844 relative to dupilumab"

Where these numbers come from: patent US20260193366A1
